Target: HLA-A*0203 (human)
Assay: competition with 125I probe peptide for purified HLA
Field: pIC50. Provide a value for each of the binders that follow.
The scale used: pIC50 is minus the common logarithm of the concentration in molar units.

Exercise: Form field: reported pIC50 of ILIGVLVGV [CEA.691L2]
Solution: 8.49

Exercise: Try ALVGIMIGV [CEA.687L2] next.
Solution: 7.51

Exercise: Queued: GIMIGVLVGV [CEA.690]
Solution: 7.51
